- system: Leucine aminopeptidase (Plasmodium falciparum (isolate 3D7)) (UniProt Q8IL11)
- Sequence (Q8IL11 whole entry, looked up): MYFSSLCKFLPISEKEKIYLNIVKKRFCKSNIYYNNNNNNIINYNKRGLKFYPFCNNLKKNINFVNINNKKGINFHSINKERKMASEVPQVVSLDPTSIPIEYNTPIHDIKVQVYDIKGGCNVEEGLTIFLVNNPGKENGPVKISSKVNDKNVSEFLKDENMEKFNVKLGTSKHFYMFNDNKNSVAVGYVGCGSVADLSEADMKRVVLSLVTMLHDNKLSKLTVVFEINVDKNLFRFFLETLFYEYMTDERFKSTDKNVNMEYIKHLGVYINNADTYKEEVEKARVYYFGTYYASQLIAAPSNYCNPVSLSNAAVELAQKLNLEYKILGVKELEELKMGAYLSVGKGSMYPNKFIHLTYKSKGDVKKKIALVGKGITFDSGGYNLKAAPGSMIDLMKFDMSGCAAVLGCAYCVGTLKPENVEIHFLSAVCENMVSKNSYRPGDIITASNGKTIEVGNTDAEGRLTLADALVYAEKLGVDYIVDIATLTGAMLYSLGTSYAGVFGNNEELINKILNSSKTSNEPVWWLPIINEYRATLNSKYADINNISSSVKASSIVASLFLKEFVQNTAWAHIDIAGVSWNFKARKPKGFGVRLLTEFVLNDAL
- experimentalProtocol: P. falciparum M17LAP inhibitors, primary screen, biochemical, fluorogenic H-Leu-NHMec substrate, 1536-well (AID 1619);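 also: plate controls were full reaction with DMSO carrier for no effect and no enzyme background for full effect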
- experimentalContext: recombinant M17LAP, H-Leu-NHMec fluorogenic kinetic assay; at 30 µM; stronger effect = higher value
Out of some 220,000 compounds screened, about 830 (0.38%) were called active. The list is a sample of the results. Measured potencies and affinities stand elsewhere.
The compounds listed here are annotated with their inhibition.
observationType: inhibition (%)

- compound: "COc1cccc(NC(=O)CC2COc3ccccc3O2)c1 (stereo unspecified)"
  observationType: "inhibition"
  readoutUnits: "%"
  valueMeasured: 7.49
- compound: "Cc1nn(-c2ccc(F)cc2)c(Cl)c1/C=C/C(=O)OCC(=O)Nc1ccc(F)cc1F"
  observationType: "inhibition"
  readoutUnits: "%"
  valueMeasured: 0.75
- compound: "O=C(c1cccc(C(F)(F)F)c1)N1CCc2c([nH]c3ccccc23)C1C(F)(F)F (stereo unspecified)"
  observationType: "inhibition"
  readoutUnits: "%"
  valueMeasured: -3.58
- compound: "COC(=O)c1ccc(N2C(=O)CC(SCC(=O)Nc3ccc(OC)cc3)C2=O)cc1 (stereo unspecified)"
  observationType: "inhibition"
  readoutUnits: "%"
  valueMeasured: -6.08
- compound: "COC(=O)c1sc2nc(CN3CCN(c4ccc(OC)cc4)CC3)[nH]c(=O)c2c1C"
  observationType: "inhibition"
  readoutUnits: "%"
  valueMeasured: 0.73
- compound: "COc1cc(SC)ccc1C(=O)NCCN1CCOCC1"
  observationType: "inhibition"
  readoutUnits: "%"
  valueMeasured: -0.03
- compound: "CCCCCCOc1cccc(N)c1"
  observationType: "inhibition"
  readoutUnits: "%"
  valueMeasured: -6.2
- compound: "O=C(CN(Cc1ccccc1)C(=O)c1ccco1)NCc1ccc(F)cc1"
  observationType: "inhibition"
  readoutUnits: "%"
  valueMeasured: 4.59
- compound: "COc1cc(/C=C/C(=O)OCC(=O)Nc2ccccc2Cl)cc(OC)c1OC"
  observationType: "inhibition"
  readoutUnits: "%"
  valueMeasured: 7.2
- compound: "COc1ccc2cc(CCNC(=O)C(C)C)c(=O)[nH]c2c1"
  observationType: "inhibition"
  readoutUnits: "%"
  valueMeasured: 9.03
- compound: "Cc1c(-c2nnc(-c3ccc(C(F)(F)F)cc3)o2)cnn1-c1ccccc1"
  observationType: "inhibition"
  readoutUnits: "%"
  valueMeasured: -4.2

Data provenance is PubChem BioAssay AID1619.
